Molecular target: phospholipase C-β2 (PLC-β2) (Homo sapiens, UniProt Q00722)
Construct: made in house; host or cells: High 5 insect cells (baculovirus); cytosolic fraction used, not purified
Sequence (Q00722 whole entry): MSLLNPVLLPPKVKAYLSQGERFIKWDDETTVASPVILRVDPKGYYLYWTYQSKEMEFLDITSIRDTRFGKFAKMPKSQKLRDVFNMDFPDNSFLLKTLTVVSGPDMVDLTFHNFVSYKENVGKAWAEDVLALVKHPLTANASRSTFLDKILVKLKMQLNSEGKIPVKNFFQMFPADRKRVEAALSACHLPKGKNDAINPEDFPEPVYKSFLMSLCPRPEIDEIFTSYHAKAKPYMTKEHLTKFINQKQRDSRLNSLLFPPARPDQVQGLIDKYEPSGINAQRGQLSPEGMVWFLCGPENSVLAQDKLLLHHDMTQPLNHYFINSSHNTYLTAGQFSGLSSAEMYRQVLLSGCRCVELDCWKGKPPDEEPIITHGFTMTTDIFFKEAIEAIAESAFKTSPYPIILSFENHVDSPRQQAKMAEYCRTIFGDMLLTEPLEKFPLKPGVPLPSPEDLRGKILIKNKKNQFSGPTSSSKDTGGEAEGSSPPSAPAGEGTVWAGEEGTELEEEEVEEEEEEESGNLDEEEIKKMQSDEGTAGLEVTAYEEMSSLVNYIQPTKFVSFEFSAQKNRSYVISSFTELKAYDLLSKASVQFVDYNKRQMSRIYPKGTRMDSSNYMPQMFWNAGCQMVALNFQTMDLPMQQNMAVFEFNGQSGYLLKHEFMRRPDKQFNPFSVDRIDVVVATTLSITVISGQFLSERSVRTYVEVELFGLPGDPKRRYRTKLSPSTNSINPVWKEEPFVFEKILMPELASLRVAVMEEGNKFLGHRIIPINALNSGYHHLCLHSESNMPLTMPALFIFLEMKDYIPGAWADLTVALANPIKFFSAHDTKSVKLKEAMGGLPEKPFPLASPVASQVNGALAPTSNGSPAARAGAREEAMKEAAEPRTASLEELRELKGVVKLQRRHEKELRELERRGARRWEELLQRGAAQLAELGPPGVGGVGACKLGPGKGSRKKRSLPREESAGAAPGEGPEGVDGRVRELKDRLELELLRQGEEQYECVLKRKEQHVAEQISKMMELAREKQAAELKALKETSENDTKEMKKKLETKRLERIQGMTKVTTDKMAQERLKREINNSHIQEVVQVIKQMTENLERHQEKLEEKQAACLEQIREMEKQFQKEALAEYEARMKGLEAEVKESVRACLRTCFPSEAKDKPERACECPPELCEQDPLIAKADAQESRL
Assay: PLC assay, [3H]PIP2 hydrolysis by recombinant PLC-β2
Format: biochemical
Details: basal, no Gβγ unless stated; short peptides at 100 μM
measurement_kind: stimulation of PLC-β2 activity by peptide itself (in words)

K89A, H91A, and R96A triple substituted peptide: Gβ86-105 peptide with K89, H91 and R96 substituted simultaneously (TTNAVAAIPLASSWVMTCAY; UniProt P62873 86-105, looked up, variant K89A H91A R96A) = did not stimulate
S97, 98D Gβ96-101: six amino acid Gβ96-101 peptide with serines 97 and 98 substituted with Asp (RDDWVM) = did not stimulate

* * *

Molecular target: phospholipase C-β2 (PLC-β2) (Homo sapiens)
Construct: made in house; host or cells: High 5 insect cells (baculovirus); cytosolic fraction used, not purified
Assay: PLC assay, [3H]PIP2 hydrolysis by recombinant PLC-β2
Type: biochemical
Details: concentration-effect curves
measurement_kind: affinity of PLC-β2 stimulation compared with parent or comparator peptide (in words)

K89A: Gβ86-105 peptide with K89A substitution (TTNAVHAIPLRSSWVMTCAY) = decreased the affinity
H91A: Gβ86-105 peptide with H91A substitution (TTNKVAAIPLRSSWVMTCAY) = decreased the affinity
